TARGET ENTITY: T1, human ENA-78 (human, UniProt P42830 37-114, limits assumed)
T1 sequence (looked up): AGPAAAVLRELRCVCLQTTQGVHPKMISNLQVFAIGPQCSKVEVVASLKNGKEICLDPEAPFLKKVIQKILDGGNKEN
ASSAY NOTES: cell-based or functional assay
Parameter: FLIPR IC50. Scope: all listed entries.
Form entry: value (µg/mL) — number only.

[[record]]
binder = "9D12.1H4 (antibody, IgG1, V domains shown) VH: EVQLQQSGPELVKPGASVRMSCKASGNTVIDYNIHWVKQSQGKSLEWIGYINPNSGGTGYNEKFKDKATLTINKSSSTAHMDLRSLTSEDSAVYYCTRFDFWGQGTTLTVSS VL: DVLMTQTPLSLPVSLGDQASISCRSTQSIVPVNGNTHLEWYLHKPGQSPKLLIYKVSNRFSGVPDRFSGSGSGTDFTLKISRVEAEDLGVYYCFQASHVPWTFGGGTKLEIK"
recorded_result = 14.4


Record 7A12.1F10 (antibody, IgG1, V domains shown) VH: QVQLQQSGAELVKPGASVKLSCKASGYIFTSNDINWVRQRPEQGLEWIGWIFPGDNSTKFNEKFRDKATLTTDKSSSTAYMQLSGLTSEDSAVYFCATFYGSTYGYYFDYWGQGTTLTVSS VL: DIVMTQSHKFMSTSVGDRVSITCKASQDVGTAVAWYQQKPGQSPKLLIYWTDTRHTGVPDRFTGSGSGTDFTLTISNVESEDCVDYFCHQYNNYPLTFGAGTKLELK . Reported FLIPR IC50: 2.4
